Biological target: Aβ1–42 (Homo sapiens)
Construct: Aβ1–42 (Sigma, St. Louis, MO, USA; counterion, NaOH) stock solution was prepared by dissolving Aβ1–42 peptide in ammonium hydroxide; purchased Sigma
Sequence (P05067 672-713): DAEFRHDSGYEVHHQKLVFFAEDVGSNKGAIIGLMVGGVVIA
Test: Inhibition of self-induced Aβ1–42 aggregation (ThT fluorescence assay)
Type: biochemical
Details: inhibitor 20 μM; Aβ1–42 50 μM; ThT; 37 °C, 72 h; mean ± SD
VALUE TYPE: inhibition at 20 µM

CC(C)CNc1cc(/C=C/c2ccc(N(C)C)cc2)nc2ccccc12 = 77.5%
CCN(CC)CCCNc1cc(/C=C/c2c[nH]c3ccccc23)nc2ccccc12 = 84.3%
CCN(CC)CCCNc1cc(/C=C/c2ccc(N3CCOCC3)cc2)nc2ccccc12 = 87.9%
CCN(CC)c1ccc(/C=C/c2cc(NCCCN(C)C)c3ccccc3n2)cc1 = 95.3%
